# reported IC50; entries follow
system name: USP7 (Homo sapiens (Human), UniProt Q93009)
Sequence (Q93009 whole entry): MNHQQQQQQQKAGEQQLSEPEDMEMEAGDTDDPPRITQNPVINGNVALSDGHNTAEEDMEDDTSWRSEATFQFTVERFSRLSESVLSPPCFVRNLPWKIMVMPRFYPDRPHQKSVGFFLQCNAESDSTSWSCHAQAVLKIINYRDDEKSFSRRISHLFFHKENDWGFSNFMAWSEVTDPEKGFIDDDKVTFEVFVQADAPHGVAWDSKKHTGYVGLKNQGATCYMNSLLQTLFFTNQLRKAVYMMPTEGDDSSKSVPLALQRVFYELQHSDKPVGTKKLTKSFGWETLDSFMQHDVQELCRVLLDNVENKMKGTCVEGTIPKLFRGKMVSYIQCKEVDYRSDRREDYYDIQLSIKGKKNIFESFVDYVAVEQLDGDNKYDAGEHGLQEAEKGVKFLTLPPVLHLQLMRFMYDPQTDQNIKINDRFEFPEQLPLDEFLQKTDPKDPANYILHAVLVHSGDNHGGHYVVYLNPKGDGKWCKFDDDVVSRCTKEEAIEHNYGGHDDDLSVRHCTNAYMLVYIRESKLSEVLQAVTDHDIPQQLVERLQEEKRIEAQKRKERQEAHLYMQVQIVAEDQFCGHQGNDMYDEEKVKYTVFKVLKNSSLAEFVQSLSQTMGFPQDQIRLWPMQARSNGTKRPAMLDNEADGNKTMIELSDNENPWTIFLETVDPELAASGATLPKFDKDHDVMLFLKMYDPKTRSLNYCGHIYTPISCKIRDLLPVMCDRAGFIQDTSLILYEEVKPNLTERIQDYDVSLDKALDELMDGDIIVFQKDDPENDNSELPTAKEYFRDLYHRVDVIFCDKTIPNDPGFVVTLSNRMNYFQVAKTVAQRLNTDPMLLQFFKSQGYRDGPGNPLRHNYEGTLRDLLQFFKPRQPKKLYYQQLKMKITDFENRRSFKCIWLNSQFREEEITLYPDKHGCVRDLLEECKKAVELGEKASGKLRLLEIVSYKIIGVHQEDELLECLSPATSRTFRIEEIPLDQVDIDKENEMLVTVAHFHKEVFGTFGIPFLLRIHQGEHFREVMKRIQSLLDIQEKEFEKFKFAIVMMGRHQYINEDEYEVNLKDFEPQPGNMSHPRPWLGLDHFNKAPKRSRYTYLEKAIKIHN
protocol details: USP7 fluorescence polarisation (FP) assay with ubiquitin-Lys-TAMRA substrate
Type: biochemical
reported conditions: biochemical inhibition; unit not given in Table 3b (Table 1 and key of Table 3a use μM); read-out: USP7 IC50 activity (Table 3b)

{"molecule": "Cc1cc(-n2c(Cl)cc3c(=O)n(CC4(O)CCN(C(=O)c5ccccc5Cl)CC4)cnc32)ccc1[C@H]1CO[C@H](C)CN1", "IC50 [µM]": 0.179}
{"molecule": "C[C@H]1CN[C@H](c2ccc(-n3c(Cl)cc4c(=O)n(CC5(O)CCN(C(=O)c6cccc(F)c6F)CC5)cnc43)cc2)CO1", "IC50 [µM]": 1.15}
{"molecule": "Cc1cc(-n2c(Cl)cc3c(=O)n(CC4(O)CCN(C(=O)c5ccc(Cl)cc5)CC4)cnc32)ccc1[C@@H]1CO[C@@H](C)CN1", "IC50 [µM]": 0.225}
